Data origin: paper PMC4257560

# measurement-target: MT2 (Homo sapiens, UniProt P49286)
# Sequence (P49286 1-362): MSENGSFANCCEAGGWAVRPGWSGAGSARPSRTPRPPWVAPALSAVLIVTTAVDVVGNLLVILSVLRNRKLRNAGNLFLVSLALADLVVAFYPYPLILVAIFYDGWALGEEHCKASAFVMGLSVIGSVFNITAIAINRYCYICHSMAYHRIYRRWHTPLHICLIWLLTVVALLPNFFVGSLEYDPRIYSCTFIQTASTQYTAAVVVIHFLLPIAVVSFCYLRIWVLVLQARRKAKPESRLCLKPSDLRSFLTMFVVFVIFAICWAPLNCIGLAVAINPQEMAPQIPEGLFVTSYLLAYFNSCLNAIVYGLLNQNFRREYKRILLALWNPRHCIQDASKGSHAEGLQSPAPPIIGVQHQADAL
# experimental-details: Intracellular Ca2+ mobilization (FLIPR) in MT2-CHO cells co-expressing 16z25
# Format: cell-based
# Parameters: expressed in transfected cells
# study-conditions: MT2; percentage of melatonin (MT)-mediated stimulation of Ca2+ signal; read-out: MT2 %Resp ±SEM, Ca2+ signal
measure: Emax (%)

1. COc1cc(COc2cc3ccn(C)c(=O)c3cc2OC)cc(OC)c1
2. COc1ccc2c(=O)n(C)ccc2c1OCc1ccc(C)cc1 [15d]
Between item 1 and item 2 , which reported Emax is smaller? To answer, give the label that identifies your chosen option.
2
(2: 40%, 1: 90%)
